Reported Bliss excess by item:
Test system: KM-H2 (Hodgkin's Lymphoma);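 also: after 72 h of two-drug dosing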
Assay: Bliss excess, mean over the matrix (fraction); higher = more synergy
Please give only the number in your answer, with no unit.

>>> experimental_result("CC(=O)Nc1cccc(-n2c(=O)n(C3CC3)c(=O)c3c(Nc4ccc(I)cc4F)n(C)c(=O)c(C)c32)c1 [Trametinib] + Cc1nc(-c2cn3c(n2)-c2ccc(-c4cnn(C(C)(C)C(N)=O)c4)cc2OCC3)n(C(C)C)n1 [Taselisib] (first compound max 1 µM, 7x7, partner max 10 µM)")
0.0338
>>> experimental_result("CC1(C)CCC(CN2CCN(c3ccc(C(=O)NS(=O)(=O)c4ccc(NCC5CCOCC5)c([N+](=O)[O-])c4)c(Oc4cnc5[nH]ccc5c4)c3)CC2)=C(c2ccc(Cl)cc2)C1 [Venetoclax] + C=CCn1c(=O)c2cnc(Nc3ccc(N4CCN(C)CC4)cc3)nc2n1-c1cccc(C(C)(C)O)n1 [AZD1775] (first compound max 1 µM, partner max 1 µM)")
0.02
>>> experimental_result("COc1nnc2ccc(N3CCC(c4ccc(OCCN5CCN(C)C(=O)[C@H]5C)cc4)CC3)nn12 [AZD5153] + CC1(C)CCC(CN2CCN(c3ccc(C(=O)NS(=O)(=O)c4ccc(NCC5CCOCC5)c([N+](=O)[O-])c4)c(Oc4cnc5[nH]ccc5c4)c3)CC2)=C(c2ccc(Cl)cc2)C1 [Venetoclax] (first compound max 1 µM, 7x7, partner max 1 µM)")
0.0245
>>> experimental_result("CN(CCO)CC[C@H](CSc1ccccc1)Nc1ccc(S(=O)(=O)NC(=O)c2ccc(N3CCC([C@@H](O)c4ccccc4-c4ccc(Cl)cc4)CC3)cc2)cc1S(=O)(=O)C(F)(F)F [AZD4320] + C[C@@H]1COCCN1C2=NC(=NC(=C2)C3(CC3)[S@](=N)(=O)C)C4=C5C=CNC5=NC=C4 [AZD6738] (first compound max 1 µM, 7x7, partner max 10 µM)")
0.0381
>>> experimental_result("Cc1nc(Nc2ncc(C(=O)Nc3c(C)cccc3Cl)s2)cc(N2CCN(CCO)CC2)n1 [Dasatinib] + CC(=O)Nc1cccc(-n2c(=O)n(C3CC3)c(=O)c3c(Nc4ccc(I)cc4F)n(C)c(=O)c(C)c32)c1 [Trametinib] (first compound max 2 µM, 7x7, partner max 1 µM)")
-0.0367
>>> experimental_result("CC(=O)c1c(C)c2cnc(Nc3ccc(N4CCNCC4)cn3)nc2n(C2CCCC2)c1=O [Palbociclib] + CN(CC[C@H](CSC1=CC=CC=C1)NC2=C(C=C(C=C2)S(=O)(=O)NC(=O)C3=CC=C(C=C3)N4CCC(CC4)[C@H](C5=CC=CC=C5C6=CC=C(C=C6)Cl)O)S(=O)(=O)C(F)(F)F)CCO [AZD4320] (first compound max 10 µM, 7x7, partner max 1 µM)")
-0.0282
>>> experimental_result("CC(=O)c1c(C)c2cnc(Nc3ccc(N4CCNCC4)cn3)nc2n(C2CCCC2)c1=O [Palbociclib] + Cc1c2c(nn1C)CSCc1cc(n(C)n1)CSc1cc(c3ccccc3c1)OCCCc1c(C(=O)O)n(C)c3c-2c(Cl)ccc13 [AZD5991] (first compound max 10 µM, 7x7, partner max 1 µM)")
-0.0228
>>> experimental_result("CCN(CCO)CCCOc1ccc2c(Nc3cc(CC(=O)Nc4cccc(F)c4)[nH]n3)ncnc2c1 [AZD2811] + O=C(c1cc(Cc2n[nH]c(=O)c3ccccc23)ccc1F)N1CCN(C(=O)C2CC2)CC1 [Olaparib] (first compound max 1 µM, 7x7, partner max 10 µM)")
0.0789
>>> experimental_result("COc1cccc(OCCCN)c1-c1cc(Nc2cnc(C#N)cn2)n[nH]1 [Prexasertib] + C[C@@H]1COCCN1C2=NC(=NC(=C2)C3(CC3)[S@](=N)(=O)C)C4=C5C=CNC5=NC=C4 [AZD6738] (first compound max 1 µM, 7x7, partner max 10 µM)")
-0.0214
>>> experimental_result("COc1cccc(OCCCN)c1-c1cc(Nc2cnc(C#N)cn2)n[nH]1 [Prexasertib] + C=CCn1c(=O)c2cnc(Nc3ccc(N4CCN(C)CC4)cc3)nc2n1-c1cccc(C(C)(C)O)n1 [AZD1775] (first compound max 1 µM, partner max 1 µM)")
0.077

What the record says about CN(C)CCCOc1ccc(-c2ccc3ncc4c(c3c2)n(C2CCOCC2)c(=O)n4C)cn1 [AZD0156] + O=C(c1cc(Cc2n[nH]c(=O)c3ccccc23)ccc1F)N1CCN(C(=O)C2CC2)CC1 [Olaparib] (first compound max 3 µM, partner max 3 µM) : Bliss excess is 0.0575

What the record says about COc1cc2ncnc(Nc3ccc(F)c(Cl)c3)c2cc1OCCCN1CCOCC1 [Gefitinib] + CC(C)n1c(=O)n(C)c2cnc3cc(F)c(-c4ccc(OCCCN5CCCCC5)nc4)cc3c21 [AZD1390] (first compound max 10 µM, 7x7, partner max 0.3 µM) : Bliss excess is -0.0312

What the record says about Cc1c2c(nn1C)CSCc1cc(n(C)n1)CSc1cc(c3ccccc3c1)OCCCc1c(C(=O)O)n(C)c3c-2c(Cl)ccc13 [AZD5991] + CC1(C)CCC(CN2CCN(c3ccc(C(=O)NS(=O)(=O)c4ccc(NCC5CCOCC5)c([N+](=O)[O-])c4)c(Oc4cnc5[nH]ccc5c4)c3)CC2)=C(c2ccc(Cl)cc2)C1 [Venetoclax] (first compound max 1 µM, 7x7, partner max 1 µM) : Bliss excess is -0.0094
